# System: Cellular tumor antigen p53 (Homo sapiens), P04637 [UNDEFINED MUTATION]
# Sequence (P04637 whole entry, looked up, change not shown): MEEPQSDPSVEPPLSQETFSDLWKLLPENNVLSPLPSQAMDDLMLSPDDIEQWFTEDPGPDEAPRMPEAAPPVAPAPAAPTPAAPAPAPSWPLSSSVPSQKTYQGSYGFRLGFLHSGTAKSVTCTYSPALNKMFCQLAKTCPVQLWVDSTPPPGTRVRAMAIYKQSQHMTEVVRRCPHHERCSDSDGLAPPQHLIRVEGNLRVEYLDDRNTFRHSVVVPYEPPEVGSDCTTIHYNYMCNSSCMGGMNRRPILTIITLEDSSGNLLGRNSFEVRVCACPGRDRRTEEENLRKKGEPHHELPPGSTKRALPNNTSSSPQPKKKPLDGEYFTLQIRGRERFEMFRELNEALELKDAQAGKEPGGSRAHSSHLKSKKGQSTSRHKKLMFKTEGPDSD
# assayProtocol: Induction of p53 mutant-dependent growth suppression of human MKN7 cells
# Format: cell-based
# recordedConditions: MKN-7
Active and inactive are the calls of the source. No cut-off for these calls is given here.
observationType: Activity

{"columns": ["smilesStr", "Activity"],
 "data": [
  ["CCCCC[C@H](O[C@@H]1O[C@@H]([C@H](O)CO)[C@H](O)[C@H]1OC(C)=O)c1c(O)cc2c(c1O)C(=O)c1c(O)cc(O)cc1C2=O", "Active"],
  ["CC(=O)CCC[C@H](O[C@@H]1O[C@@H]([C@H](O)CO)[C@H](O)[C@H]1O)c1c(O)cc2c(c1O)C(=O)c1c(O)cc(O)cc1C2=O", "Active"],
  ["O=C1c2cc(O[C@@H]3O[C@@H]([C@H](O)CO)[C@H](O)[C@H]3O)cc(O)c2C(=O)c2c1cc1c(c2O)[C@@H]2CCO[C@@H]2O1", "Active"],
  ["CCCCC[C@H](O[C@@H]1O[C@@H]([C@H](O)CO)[C@H](O)[C@H]1O)c1c(O)cc2c(c1O)C(=O)c1c(O)cc(O)cc1C2=O", "Active"]
]}

# input for lookup
Challenge: Please state recorded Activity (tested on Cellular tumor antigen p53 (Homo sapiens), P04637 [UNDEFINED MUTATION]) of CCCCC[C@H](O)c1c(O[C@@H]2O[C@@H]([C@H](O)CO)[C@H](O)[C@H]2O)cc2c(c1O)C(=O)c1c(O)cc(O)cc1C2=O
Response given: Active
